Origin of measurements: patent US20240215577A1

Test system: Phakopsora pachyrhizi
protocol notes: Test D: Asian soybean rust, preventive spray on soybean seedlings
Format: in vivo
experimental conditions: 50 ppm, 100 = 100% disease control, 0 = no control
From the text: General protocol for preparing test suspensions for Tests A-F: the test compounds were first dissolved in acetone in an amount equal to 3% of the final volume and then suspended at the desired concentration (in ppm) in acetone and purified water (50/50 mix by volume) containing 250 ppm of the surfactant PEG400 (polyhydric alcohol esters). The resulting test suspensions were then used in Tests A-F. The test solution was sprayed to the point of run-off on soybean seedlings. […]
Lab note: compare Test D disease control rating against 60%. Equal or greater, write satisfied. Smaller, write not satisfied.

# input Given CCCOc1ccc(Cl)c(-c2cn(C)c(=O)c(Cl)c2-c2ccc(F)cc2F)c1 [Compound 10] , state whether its Test D disease control rating is at least 60%.
# output not satisfied

# input Given the entry COc1cc(OC)cc(-c2cn(C)c(=O)c(Cl)c2-c2ccc(F)cc2Cl)c1 [Compound 3] , answer whether its Test D disease control rating meets or surpasses 60%.
# output satisfied

# input Quick check, Test D disease control rating >= 60%? COc1ccc(Cl)c(-c2cn(C)c(=O)c(Cl)c2-c2ccc(F)cc2Br)c1 [Compound 71]
# output satisfied

# input Decide: Test D disease control rating of Cn1cc(-c2cc(F)ccc2Cl)c(-c2ccc(F)cc2F)c(Cl)c1=O [Compound 40] >= 60%?
# output satisfied

# input I'd appreciate it if you could say whether Cn1cc(-c2cc(F)ccc2Cl)c(-c2ccc(F)cc2Cl)c(C#N)c1=O [Compound 14] has Test D disease control rating at least equal to 60%.
# output not satisfied

# input Test whether the compound COc1ccc(-c2c(-c3cc(OC)ccc3Cl)cn(C)c(=O)c2Cl)c(Cl)c1 [Compound 69] records Test D disease control rating of 60% or higher.
# output satisfied

# input // inclusive: Test D disease control rating at least 60%? input: COc1ccc(Cl)c(-c2cn(C)c(=O)cc2-c2ccc(C#N)cc2Cl)c1 [Compound 59]
# output not satisfied

# input Test D disease control rating >= 60% for COc1ccc(Cl)c(-c2cn(C)c(=O)c(Cl)c2-c2ccccc2F)c1 [Compound 61] ?
# output satisfied

# input Dear colleague, could you confirm whether Cn1cc(-c2ccccc2Cl)c(-c2ccc(F)cc2Cl)c(Cl)c1=O [Compound 15] has Test D disease control rating at or above 60%?
# output not satisfied

# input Has CCc1c(-c2ccc(F)cc2Cl)c(-c2cc(F)ccc2Cl)cn(C)c1=O [Compound 23] a recorded Test D disease control rating greater than or equal to 60%?
# output not satisfied

New cases:
# input Test whether the compound CCCn1cc(-c2cc(OC)ccc2Cl)c(-c2ccc(F)cc2Cl)c(Cl)c1=O [Compound 76] records Test D disease control rating of 60% or higher.
# output not satisfied

# input // inclusive: Test D disease control rating at least 60%? input: Cc1c(-c2ccc(F)cc2Cl)c(-c2cc(F)ccc2Cl)cn(C)c1=O [Compound 18]
# output satisfied

# input Decide: is the reported value of Test D disease control rating for COc1ccc(F)c(-c2cn(C)c(=O)c(Cl)c2-c2ccc(F)cc2Cl)c1 [Compound 28] equal to or greater than 60%?
# output satisfied

# input API: above_or_equal(metric=Test D disease control rating, cutoff=60%) for item COc1ccc(-c2cc(=O)n(C)cc2-c2cc(OC)ccc2Cl)c(Cl)c1 [Compound 68]
# output not satisfied

# input Hello, I need to know if Cn1cc(-c2ccccc2)c(-c2c(F)cccc2F)c(Cl)c1=O [Compound 11] has measured Test D disease control rating not below 60%. Thanks!
# output not satisfied

# input Given the entry COc1ccc(Cl)c(-c2cn(C)c(=O)cc2-c2cccc(F)c2F)c1 [Compound 65] , answer whether its Test D disease control rating meets or surpasses 60%.
# output not satisfied

# input Say whether Cn1cc(-c2ccccc2Cl)c(-c2ccc(F)cc2F)c(Cl)c1=O [Compound 48] shows Test D disease control rating of 60% or more.
# output satisfied

# input Does COc1cc(OC)cc(-c2cn(C)c(=O)c(Cl)c2-c2ccc(F)cc2F)c1 [Compound 25] have a reported Test D disease control rating of at least 60%?
# output satisfied

# input Answer whether Test D disease control rating of Cn1cc(-c2cc(F)c(F)cc2F)c(-c2ccc(F)cc2Cl)c(Cl)c1=O [Compound 26] is greater than or equal to 60%.
# output not satisfied

# input Decide: is the reported value of Test D disease control rating for Cn1cc(-c2cc(F)ccc2F)c(-c2ccc(F)cc2Cl)c(Cl)c1=O [Compound 24] equal to or greater than 60%?
# output not satisfied

# input Dear colleague, could you confirm whether C=CCn1cc(-c2cc(OC)ccc2Cl)c(-c2ccc(F)cc2Cl)c(Cl)c1=O [Compound 77] has Test D disease control rating at or above 60%?
# output not satisfied

# input Given the entry Cn1cc(-c2ccc(F)cc2Cl)c(-c2ccc(F)cc2F)c(Cl)c1=O [Compound 42] , answer whether its Test D disease control rating meets or surpasses 60%.
# output satisfied

# input Is Test D disease control rating for COc1ccc(Cl)c(-c2cn(C)c(=O)c(Cl)c2-c2ccc(C#N)cc2Cl)c1 [Compound 56] at or above 60%?
# output satisfied

# input In plain terms: is recorded Test D disease control rating at least 60% for Cn1cc(-c2ccc(F)cc2Cl)c(-c2c(F)cccc2F)c(Cl)c1=O [Compound 16] ?
# output satisfied

# input Does the reported Test D disease control rating for Cc1ccsc1-c1cn(C)c(=O)c(Cl)c1-c1ccc(F)cc1Cl [Compound 63] fall at or above the 60% mark?
# output not satisfied

# input Is Test D disease control rating for Cn1cc(-c2ccc(F)cc2)c(-c2c(F)cccc2F)c(Cl)c1=O [Compound 17] at or above 60%?
# output satisfied

# input Given Cn1cc(-c2cc(F)ccc2Cl)c(-c2ccc(F)cc2Cl)c(I)c1=O [Compound 2] , state whether its Test D disease control rating is at least 60%.
# output not satisfied

# input Entry COc1cc(-c2cn(C)c(=O)c(Cl)c2-c2ccc(F)cc2F)ccc1Br [Compound 21] : is its Test D disease control rating no less than 60%?
# output not satisfied

# input Could you please find out whether Cc1c(-c2cn(C)c(=O)c(Cl)c2-c2ccc(F)cc2Cl)cccc1[N+](=O)[O-] [Compound 54] has Test D disease control rating that meets 60% or exceeds it?
# output satisfied

# input Hello, I need to know if CCc1c(-c2ccc(F)cc2Cl)c(-c2cc(OC)ccc2Cl)cn(C)c1=O [Compound 47] has measured Test D disease control rating not below 60%. Thanks!
# output not satisfied

====

Tested on: Alternaria solani
protocol notes: Test F: tomato early blight, preventive spray on tomato seedlings
Type: in vivo
experimental conditions: Alternaria solani, 50 ppm, 100 = 100% disease control, 0 = no control, read-out: Test F disease control rating
reported endpoint: pest or weed control at 50 ppm (%)
Respond numerically; units are % and should not be typed.

Consider the worked cases shown below.
# input compound: COc1ccc(Cl)c(-c2cn(C)c(=O)c(Br)c2-c2ccc(F)cc2Cl)c1 [Compound 33] ; wanted: its pest or weed control at 50 ppm
# output 100

# input Item COc1ccc(Br)c(-c2cn(C)c(=O)c(Cl)c2-c2ccc(F)cc2F)c1 [Compound 20] has what recorded pest or weed control at 50 ppm?
# output 99

# input If you can, please state the reported pest or weed control at 50 ppm value of COc1cc(OC)c(Cl)c(-c2cn(C)c(=O)c(C)c2-c2ccc(F)cc2Cl)c1 [Compound 13] .
# output 100

# input pest or weed control at 50 ppm for COc1cc(OC)c(Cl)c(-c2cn(C)c(=O)c(Cl)c2-c2ccc(F)cc2F)c1 [Compound 29] ?
# output 99

# input # lookup: pest or weed control at 50 ppm of COc1cc(OC)c(Cl)c(-c2cn(OC)c(=O)c(Cl)c2-c2ccc(F)cc2Cl)c1 [Compound 22]
# output 99

***
# input Entry under review: COc1cc(OC)c(Br)c(-c2cn(C)c(=O)c(Cl)c2-c2ccc(F)cc2F)c1 [Compound 9] . Reported pest or weed control at 50 ppm?
# output 100

# input Could you share which pest or weed control at 50 ppm value was measured for COc1ccc(Cl)c(-c2cn(C)c(=O)c(Cl)c2-c2ccc(F)cc2F)c1 [Compound 30] ?
# output 99

# input Could you share which pest or weed control at 50 ppm value was measured for COc1cc(OC)c(Cl)c(-c2cn(C)c(=O)c(Cl)c2-c2ccc(F)cc2Cl)c1 [Compound 4] ?
# output 100

# input // query pest or weed control at 50 ppm value for entry COc1cc(OC)c(Cl)c(-c2cn(O)c(=O)c(Cl)c2-c2ccc(F)cc2Cl)c1 [Compound 39]
# output 0

# input Record request: pest or weed control at 50 ppm value, item COc1ccc(Cl)c(-c2cn(C)c(=O)c(Cl)c2-c2ccc(F)cc2Cl)c1 [Compound 32]
# output 100

# input compound: COc1cc(OC)c(Cl)c(-c2cn(OC(F)F)c(=O)c(Cl)c2-c2ccc(F)cc2Cl)c1 [Compound 38] ; wanted: its pest or weed control at 50 ppm
# output 0

# input Find the recorded pest or weed control at 50 ppm belonging to COc1ccc(Cl)c(-c2cn(C)c(=O)c(C)c2-c2ccc(F)cc2Cl)c1 [Compound 43] and report it.
# output 100

# input Which pest or weed control at 50 ppm value is on record for COc1cc(OC)cc(-c2cn(OC)c(=O)c(Cl)c2-c2ccc(F)cc2Cl)c1 [Compound 19] ?
# output 0

# input Need pest or weed control at 50 ppm of COc1cc(OC)c(F)c(-c2cn(C)c(=O)c(Cl)c2-c2ccc(F)cc2F)c1 [Compound 51] , thanks.
# output 100

# input Return reported pest or weed control at 50 ppm; argument: C#CCOn1cc(-c2cc(OC)cc(OC)c2Cl)c(-c2ccc(F)cc2Cl)c(Cl)c1=O [Compound 36]
# output 0
